I'd appreciate it if you could supply melting point values for the items below.

compound	melting point
COCn1c(C)nc2nc(O)cnc2c1=O	224 to 226 °C
COc1ccc(F)cc1-c1cccc(-n2cnc(-c3nc(C)no3)c2)c1	153 to 158 °C
CC(C)Oc1cc(-c2cn(C)c(C(F)(F)F)cc2=O)c(F)cc1Cl	150 to 151 °C
O=C(CCS)NC1CCCCC1	73.5 to 75.5 °C
COC(=O)C1CCCc2c(-c3ccc(Cl)cc3)nsc2C1 (stereo unspecified)	108 to 109 °C
O=Cc1ccc(-c2cc(Br)ccn2)o1	105 to 106 °C
COC1(C)CC(C)(C)c2ccc(Oc3ccc([N+](=O)[O-])cc3)cc2O1 (stereo unspecified)	125 °C
N#Cc1ccc(NC(=N)Nc2ncccc2OCc2ccccc2)cc1	173 to 175 °C
CNC(=O)c1ncn(C(OC)c2ccc(Cl)c(Cl)c2)c1C(=O)NC (single isomer, unassigned; (+))	112 to 114 °C
CN1CCN(C2=Nc3cc(Cl)ccc3Nc3ccsc32)CC1	225 to 226 °C

Kindly give each listed record's melting point.
1. N=C(NN=Cc1ccc(OC(F)C(F)(F)F)cc1)NN=Cc1ccc(OC(F)C(F)(F)F)cc1 (stereo unspecified)
2. COc1ccc(-c2ccc(-c3ccccc3Cl)n2Cc2cccc(N)n2)cc1
3. COc1ccccc1CNc1ccc2cc(Nc3ncccn3)ccc2n1
4. N#Cc1cc(Oc2ccc(Cl)c(Cl)c2)cnc1Cl
5. O=C1c2c(cccc2C(F)(F)F)-n2cnc(-c3noc(CN4Cc5ccccc5C4)n3)c2[C@@H]2CCN12

### Response
1. 125 to 130 °C
2. 147 to 148 °C
3. 175 °C
4. 76 to 78 °C
5. 185 to 188 °C

###

Kindly supply the reported melting point values for the records listed here.

molecule	melting point
CCCCCC(C)C(C)c1cc(O)cc(OC(NC(C)=O)c2ccccc2)c1 (stereo unspecified)	196 to 199 °C

Parameter requested: melting point. Apply to each item below.
1. Oc1ccc(-c2nc(-c3ccc(F)cc3)c(-c3ccncc3)[nH]2)cc1
2. c1ccc(CC2CCc3ccccc3N2)cc1 (stereo unspecified)
3. Cc1ccc(S(=O)(=O)OCC2COc3cc(Cl)c(Cl)cc3O2)cc1 (stereo unspecified)

### Response
["214 to 215 °C", "187 to 190 °C", "124 to 125 °C"]

Hi team, please reply with melting point for each item in this list.
1. O=C(O)COC1Cc2sc(S(=O)(=O)C(c3ccccc3F)c3ccccc3F)nc2-c2ccccc21 (stereo unspecified)
2. CCCC1=C(C#N)C(c2cccc([N+](=O)[O-])c2Cl)c2c[nH]nc2N1 (stereo unspecified)

### Response
1: 204 to 208 °C; 2: 234 to 235 °C

###

Field: melting point. Provide a value for each of the compounds that follow.

compound	result
CCN1CCCC1CNC(=O)c1c(OC)c(Cl)cc(Cl)c1OC (centres undefined)	120 to 121 °C
O=C(O)CCc1cc(C(=O)c2cccc(C(=O)O)c2)ccc1O	197 to 200 °C
CCCc1ccc(OCCC(C)C)cc1O	40 to 40.5 °C
CCOc1cc2ncc(C#N)c(Nc3ccc4c(c3)S(=O)(=O)C=C4)c2cc1OCC	155 to 160 °C
N#CC1=C(Nc2cccc(Cl)c2)CCC1	111 to 112 °C

Value sought for every listed compound: melting point.
1. CCOC(=O)c1c(Nc2c(C)cc(Br)cc2C)n[nH]c1C
2. COC(=O)c1sc2ccc(OC)cc2c1OCC#N
3. CC(Cc1c[nH]c2ccccc12)(NC(=O)OC1C2CC3CC(C2)CC1C3)C(=O)NCCc1cccc(NC(=O)CCC(=O)O)c1 (centres undefined)

### Response
168 to 196 °C
160 °C
78 to 82 °C

###

Provide the reported melting point of each item.

Answered cases to consult:
molecule	result
COC(=O)c1sccc1S(=O)(=O)NC(=O)Nc1nc(C)cc(C)n1	191 to 193 °C
Nc1cccc(CNC(=O)c2[nH]c3ccc(Cl)cc3c2S(=O)(=O)c2ccccc2)c1	247 to 249 °C
O=c1nc(-c2ccc(N3CCCC3)nc2)sc2ccccc12	221 to 223 °C

Below are some molecules; for each one, tell me its melting point.
1. CCN1CCN(c2ccnc3sc(C(N)=O)c(N)c23)CC1
2. Nc1c(-c2ccc(-c3nnco3)cc2)nnn1-c1ccc(C(F)(F)F)cc1F
3. NCCc1cccc(N2C(=O)N(c3cc(Cl)ccc3Cl)Cc3cnc(Nc4ccccc4)nc32)c1
4. CSc1nsc(NC(=O)C(C)(C)C)c1C(N)=O
5. N#Cc1cccc2c1NCCC2
6. CC(=NO)c1ccc(N2CC(CO)OC2=O)cc1 (stereo not given)

### Response
["218 to 219 °C", "185 to 186 °C", "120 to 123 °C", "142 to 143 °C", "75 to 76 °C", "190 °C"]

###

Please respond with reported melting point for every item in the list.

Recorded results for 5 compounds are shown here.
compound	melting point
Cc1ccc2c([nH]c(=O)n3c(=O)[nH]nc23)c1C	380 to 382 °C
O=C(Nc1cccc(C(F)(F)F)c1)c1cccc2cc(OS(=O)(=O)C(F)(F)F)ccc12	177 to 178 °C
CC(C)C(NC(=O)OCc1ccccc1)P(O)O (configuration not stated)	108 to 111 °C
COc1c(C(=O)O)[nH]c2cccc(C)c12	136 °C
NC(=O)N(O)Cc1ccc(N2CCC3(CC2)OCCO3)cc1	153 to 154 °C

Dear colleague, could you send me melting point for each of the items below? Thanks.
1. O=[N+]([O-])c1ccc(Cl)c2cc[nH]c12
2. CN1CN(C)c2nc3n(Cc4ccccc4)c(=O)c(Cc4ccccc4)c(O)n3c2C1=O
3. Cc1nc(-c2ccccc2F)cn1-c1ccc(COc2ncc(C(F)(F)F)cc2Cl)cc1
4. COc1c(C)c(=O)oc2cc(-c3ccc(C(C)C)cc3)ccc12
5. CCCCCCCCCCCCCCCCCCCCCCOS(=O)(=O)c1ccc(Cl)cc1
6. COc1c(C2CCN(CCCCNC(=O)c3ccc(-c4ccc(Cl)nn4)cc3)CC2)ccc2c1CCCC2
7. O=C1C(=O)N2c3c(cccc31)OCC2c1ccccc1 (configuration not stated)

### Response
166 to 167 °C
176 to 179 °C
109 °C
129 °C
74 to 75 °C
192 to 194 °C
169 to 171 °C

###

Assign melting point to each entry below.

compound	result type	result
C=CCOc1cc(N2C(=O)c3ccccc3C2=O)c(F)cc1Cl	melting point	148 to 150 °C
Cc1cncc(C)c1-c1c(C)cc(N=C(c2ccccc2)c2ccccc2)cc1C	melting point	44 to 45 °C
CCC/C=C/c1ccc(C#CC(C)(C)O)c(F)c1	melting point	62 °C
CC(C)(C)OC(=O)Nc1ccc(-c2ccccc2)cc1[N+](=O)[O-]	melting point	119 to 121 °C

Okay, here is my list. What is melting point for each of these?
1. CSc1ncccc1C1C(C(=O)OC(C)C)=C(C)NC(=S)N1C(=O)OC(C)C (stereo not given)
2. O=C1CCC(Nc2ccc3[nH]c(=O)c(C(=O)O)cc3c2)N1 (stereo not given)
3. Oc1cc(Cl)c(-n2cnnn2)cc1Oc1ccc(Cl)cc1Cl
4. O=C1CC(c2ccccc2)Cc2occ(C(F)(F)F)c21 (stereo not given)
5. Cc1ncc2c(c1O)COC2S(C)(=O)=O (stereo not given)

### Response
1: 119 to 121 °C; 2: > 300 °C; 3: 147 to 148 °C; 4: 107 to 108 °C; 5: 205 to 206 °C

###

I'd appreciate it if you could supply melting point values for the items below.

Here's what some known entries look like.
molecule	result
Cc1nc(Cc2ccc(NC(=O)/C=C/c3cnn(C)c3-c3ccc(F)cc3)cc2)sc1C	210 to 211 °C
Cc1nc2c(c(=O)[nH]1)-c1cc(S(=O)(=O)Nc3ccc(C(N)=O)cc3)ccc1CC2	190 °C

I need melting point for every entry listed below, if you could help.
1. NC(=O)C1=CCCc2cc(Sc3cccc(F)c3)ccc21
2. Nc1nc2ccccc2n2cnc(-c3noc(C4CC4)n3)c12
3. O=C1Cc2cc(Oc3ccccc3)ccc2N1
4. CCCc1c(OCCCOc2ccc3c(c2CCC)OC(CCC(=O)O)CC3)ccc(C(C)=O)c1O (stereo not drawn)
5. CC1(OCc2ccccc2F)COC(c2cccc(F)c2)OC1 (stereo not drawn)

### Response
["168 to 170 °C", "305 to 310 °C", "148 to 150 °C", "109 to 110 °C", "83 to 84 °C"]

###

Assignment: determine reported melting point for the given molecules.

Reference set (3 entries):
molecule	result type	result
CCCCCCNCCC(=O)O	melting point	95 to 97 °C
COc1cccnc1C(O)c1cc(F)ccc1F (centres undefined)	melting point	94 to 95 °C
Cn1cc(Cl)c(=O)c(-c2cccc(C(F)(F)F)c2)c1	melting point	170 to 172 °C

Quick one: give me melting point for each item below, same order please.
1. COc1c(O)ccc(C(=O)c2ccccc2)c1F
2. CCOC(=O)C=CC=Cc1cccc([N+](=O)[O-])c1
3. CNC(=O)c1cc2c(nc(C)n2C)c2c1CCC(c1ccccc1)O2 (centres undefined)
4. O=c1[nH]c2cc(Cl)ccc2c(O)c1-c1ccccc1F

### Response
1: 126 to 128 °C; 2: 100 to 101 °C; 3: 291 to 292 °C; 4: > 350 °C

// each listed molecule needs a value for melting point
1. O=C(Nc1ccccc1F)N1CCc2cc(S(=O)(=O)N3CCN(c4cccc(Cl)c4)CC3)ccc21
2. COc1ccc(N2CCN(C(=O)Oc3ccc(Oc4ccc(C(F)(F)F)cn4)cc3)CC2)c(OC)c1
3. Cc1ccc(NC(=O)Nc2ccc(-c3c(Cc4ccccc4)sc4ncnc(N)c34)cc2)cc1
4. COC(=O)c1cc(N=Cc2ccccc2)ccc1OC(C)=O

### Response
["174 to 175 °C", "98 to 99 °C", "169 to 173 °C", "101 to 103 °C"]

Respectfully, I request melting point for each entry included below.
1. C=CCSc1nc2cc(C)c(C)cc2[nH]1
2. CC(C)c1cccc(C(C)C)c1NC(=O)Nc1ccccc1C(=O)NC1CCN(C(c2ccccc2)c2ccccc2)CC1
3. CCOC(=O)c1cnn(-c2ccc(C)cc2)n1

### Response
1. 119 to 120 °C
2. 118 °C
3. 61 to 62 °C
